All values here come from patent US5015639A.

- target_or_system: D-2 receptor (Rattus norvegicus)
- Construct: Striatal tissue was excised, pooled, and homogenized; tissue Charles River Breeding Laboratories, Mass; (animals)
- Sequence (P61169 whole entry): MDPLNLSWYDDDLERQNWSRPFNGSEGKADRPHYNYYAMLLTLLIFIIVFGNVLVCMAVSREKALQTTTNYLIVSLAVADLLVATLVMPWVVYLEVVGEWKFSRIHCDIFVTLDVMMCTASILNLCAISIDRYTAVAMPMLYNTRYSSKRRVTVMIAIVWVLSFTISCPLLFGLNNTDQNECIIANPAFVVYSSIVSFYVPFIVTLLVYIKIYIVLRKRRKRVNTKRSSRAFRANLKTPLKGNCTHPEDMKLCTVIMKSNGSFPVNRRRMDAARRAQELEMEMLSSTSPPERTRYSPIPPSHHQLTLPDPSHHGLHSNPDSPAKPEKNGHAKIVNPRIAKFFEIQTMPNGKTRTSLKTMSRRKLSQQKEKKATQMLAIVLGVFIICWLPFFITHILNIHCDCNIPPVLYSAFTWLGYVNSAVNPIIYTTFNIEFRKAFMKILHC
- assay_comment: Competitive inhibition assay vs. 3H-spiperone (D-2 receptor binding)
- settings: rat striatal homogenate, 0.2 nM 3H-spiperone, pH 7.4, 37° C., 15 min
measure_name: Ki (nM)
Provide the reading as a plain figure in nM.

Solved cases (2 shown):
CN1CCc2cc(Cl)c(O)cc2C(Oc2ccccc2)C1 (stereo not drawn)
610
CN1CCc2cc(Cl)c(O)cc2C(N2CCCCC2)C1 (stereo not drawn)
7500

Consider the additional compound presented here.
For D-2 receptor (Rattus norvegicus), provide Ki of CC(=O)Oc1cc2c(cc1Cl)CCN(C)CC2CC=C(C)C (stereo not drawn) please.
955
